Biological target: cloned rat mGlu1 receptor (Rattus norvegicus, UniProt P23385)
Construct: expressed in transfected cells; host or cells: CHO cells
Sequence (P23385 19-1199): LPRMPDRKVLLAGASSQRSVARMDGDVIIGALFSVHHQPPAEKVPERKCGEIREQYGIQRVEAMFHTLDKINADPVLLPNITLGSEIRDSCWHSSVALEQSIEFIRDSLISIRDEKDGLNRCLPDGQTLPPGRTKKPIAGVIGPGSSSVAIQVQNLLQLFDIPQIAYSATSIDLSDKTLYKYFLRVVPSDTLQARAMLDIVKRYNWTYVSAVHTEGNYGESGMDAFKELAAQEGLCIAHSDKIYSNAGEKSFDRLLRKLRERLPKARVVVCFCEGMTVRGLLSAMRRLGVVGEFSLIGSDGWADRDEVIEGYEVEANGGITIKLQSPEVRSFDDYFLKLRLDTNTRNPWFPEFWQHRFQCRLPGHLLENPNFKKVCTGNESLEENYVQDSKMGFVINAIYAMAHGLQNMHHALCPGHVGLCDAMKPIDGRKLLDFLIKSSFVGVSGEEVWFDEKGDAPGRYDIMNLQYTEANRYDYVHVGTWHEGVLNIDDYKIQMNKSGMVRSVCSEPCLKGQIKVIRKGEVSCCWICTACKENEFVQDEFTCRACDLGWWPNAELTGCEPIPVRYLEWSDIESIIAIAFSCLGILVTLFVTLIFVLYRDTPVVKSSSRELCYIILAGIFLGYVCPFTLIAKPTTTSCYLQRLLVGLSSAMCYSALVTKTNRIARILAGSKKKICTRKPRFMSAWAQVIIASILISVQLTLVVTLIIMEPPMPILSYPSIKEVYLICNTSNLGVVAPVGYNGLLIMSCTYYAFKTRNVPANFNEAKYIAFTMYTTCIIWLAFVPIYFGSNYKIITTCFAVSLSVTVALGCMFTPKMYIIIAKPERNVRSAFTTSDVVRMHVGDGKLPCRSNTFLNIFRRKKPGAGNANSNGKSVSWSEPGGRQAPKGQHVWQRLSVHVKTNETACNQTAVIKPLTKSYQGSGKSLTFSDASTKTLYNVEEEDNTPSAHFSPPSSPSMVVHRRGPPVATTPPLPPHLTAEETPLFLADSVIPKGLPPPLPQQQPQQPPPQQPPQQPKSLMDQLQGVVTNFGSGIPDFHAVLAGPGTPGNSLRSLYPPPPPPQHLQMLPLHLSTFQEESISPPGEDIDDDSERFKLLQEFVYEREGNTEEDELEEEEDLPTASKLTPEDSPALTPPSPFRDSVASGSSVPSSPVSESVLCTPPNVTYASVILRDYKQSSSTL
Assay: Signal transduction at the cloned rat mGlu1 receptor in CHO cells (glutamate-induced Ca2+ rise, FLIPR)
Format: cell-based
Conditions: inhibition of glutamate-induced intracellular Ca2+ rise, CHO cells expressing mGlu1 receptor; compounds with pIC50 between 7 and 8
pIC50: −log10 of the molar value.
Endpoint Label: pIC50

Worked set:
CO[C@H]1CC[C@H](C(=O)c2ccc3nc4c(cc3c2)CCCS4)CC1 [Compound 178] : 7.92
CCc1cc2cc(C(=O)C3CC4CC(O)C3C4)ccc2nc1Cl (stereo not drawn) [Compound 281] : 7.63
COC1CCC(C(=O)c2ccc3nc4c(cc3c2)CCCO4)=CO1 (stereo not drawn) [Compound 460] : 7.34
CCc1cc2cc(C(=O)Cc3ccccc3)ccc2nc1N [Compound 289] : 7.27
CCc1cc2cc(C(=O)C3CCC(OC)CC3)ccc2nc1NC(=O)Nc1ccc(N(C)C)cc1 (stereo not drawn) [Compound 369] : 7.40
CCc1cc2cc(C(=O)Cc3ccccc3OC)ccc2nc1C [Compound 236] : 7.17

(a) O=C(CC1(F)CC2CCC1C2)c1ccc2nc3c(cc2c1)CCCO3 (stereo not drawn) [Compound 482]
(b) O=C(c1ccc2nc3c(cc2c1)CCCO3)C12CC3CC(CC(C3)C1)C2 [Compound 433]
(c) COCc1cc2cc(C(=O)[C@H]3CC[C@H](OC)CC3)ccc2nc1C [Compound 286]
Exercise: // sort entries: pIC50, high to low Provide the ranking by listing each label in its place in the requested order.
Key: b, a, c
(b: 7.79, a: 7.34, c: 7.03)

====

Target: cloned rat mGlu1 receptor (Rattus norvegicus)
Construct: expressed in transfected cells; host or cells: CHO cells
Test: Signal transduction at the cloned rat mGlu1 receptor in CHO cells (glutamate-induced Ca2+ rise, FLIPR)
Assay type: cell-based
Conditions: 50% inhibition of the glutamate-induced intracellular Ca2+ rise; CHO cells, FLIPR
pIC50: −log10 of the molar value.
Endpoint Label: pIC50

CO[C@H]1CC[C@H](C(=O)c2ccc3nc4c(cc3c2)CCS4)CC1 : 8.04
COC1CCC(C(=O)c2ccc3nc4c(cc3c2)CCCO4)CC1 (centres unmarked) : 8.49
CCc1cc2cc(C(=O)C3CCC(OC)CC3)c(C)cc2nc1C (centres unmarked) : 8.23
COC1CCC(F)(C(=O)c2ccc3nc4c(cc3c2)CCCO4)CC1 (centres unmarked) : 8.27
COC1CCC(C(=O)c2ccc3nc4c(cc3c2)CCCC4)CC1 (centres unmarked) : 8.13

====

Target: mGlu1 receptor (Rattus norvegicus)
Experiment: [3H]Compound A binding to rat brain membranes (cortex, hippocampus, striatum, cerebellum)
Conditions: membranes from rat cerebellum; mean ± SD, 3 experiments
Endpoint Label: Kd (nM)
Return type: number; implicit unit nM.

Exercise: Give the measured Kd for [3H]c1ccc(CC(=O)c2ccc3nc4c(cc3c2)CCCO4)cc1 [[^3H]Compound A]
Key: 0.99

====

Target: rat mGlu1a receptor (Rattus norvegicus)
Construct: host or cells: CHO-dhfr- cells
Sequence (P23385 19-1199): as above
Assay: [3H]quisqualate binding to rat mGlu1a receptor CHO-dhfr− membranes (saturation, inhibition)
pKi: −log10 of the molar value.
In this section, each of the compounds is paired with its reported pKi.

O=C(Cc1ccccc1)c1ccc2nc3c(cc2c1)CCCO3 [Compound A] : < 3.00

--- query ---
Exercise: Entry CCOC(=O)[C@]12CC1/C(=N\O)c1ccccc1O2 (mixture of isomers) [CPCCOEt, reference compound] needs its pKi filled in; supply it.
Key: < 3.00
